TARGET: KRasG12C (M1-K169, biotinylated on the N-terminus) (Homo sapiens (Human), UniProt P01116, G12C)
ASSAY PROCEDURE: Covalent competition assay: scintillation proximity assay (SPA) quantifying covalent modification of KRASG12C
ASSAY CONTEXT: competition with radiolabeled covalent probe (Compound B/Compound A), 2 hours incubation, 10 nM KRasG12C
pIC50: −log10 of the molar value.
As shown below, each of these compounds has a reported pIC50 value.
METRIC NAME: pIC50

- C=CC(=O)N1CC2(CC(n3nc(N4CCN(CCN5CCOCC5=O)C[C@]4(C)CC)c(-c4c(Cl)c(C)cc5[nH]ncc45)c3C)C2)C1 (single isomer, unassigned) [Example 177a]: 8.10
- C=CC(=O)N1CC2(CC(n3nc(N4CC[C@@H](CN5CC6(C5)CS(=O)(=O)C6)CC4(C)C)c(-c4c(Cl)c(Cl)cc5[nH]ncc45)c3C)C2)C1 (single isomer, unassigned) [Example 248b]: 8.05
- C=CC(=O)N1CC2(CC(n3nc(N4C5CCC4CN(C(C)=O)C5)c(-c4c(Cl)c(C)cc5[nH]ncc45)c3C)C2)C1 (single isomer, unassigned) [Example 57b]: 6.67
